# ASSAY_PROCEDURE: Cycloheximide Counterscreen for Small Molecule Inhibitors of Shiga Toxin; further: read at 38.3 µM for the half of the compounds with a filed dose; 0% is about no effect
# ASSAY_CONTEXT: cell reporter, cycloheximide protein synthesis inhibition counterscreen; hits give high values
Hit rate of the full screen: of about 300,000 compounds, about 37,000 (12%) were called active. The list comes from a sample in which actives are over-represented; it also holds close analogues and randomly drawn compounds.
max response for assorted compounds
Please give a number only; it is taken to be in %.

>>> test_value("Cc1cc(/C=C2/SC(=O)N(CC(=O)N3CCCC3)C2=O)ccc1N1CCOCC1")
12.3
>>> test_value("O=c1[nH]c(N2CCOCC2)nc2ccccc12")
-4.42
>>> test_value("CC[n+]1cc(C)ccc1/C=C/c1ccc(N(C)C)cc1")
12.8
>>> test_value("CN(C)CCCCCN(C)Cc1cc2ccccc2o1")
-0.524
>>> test_value("Cc1ccc(SC(CC(=O)c2ccc(C(C)(C)C)cc2)C(=O)O)cc1 (configuration not stated)")
7.94
>>> test_value("COc1ccc(Cc2n[nH]c(=S)n2NC(=O)Nc2ccc(C)cc2)cc1")
37.1

# next compound below
Query: Dear colleague, please send me the reported max response for O=C1N=C(N2CCOCC2)S/C1=C\C=C/c1ccccc1 when you can.
Result: 44.4

* * *

# ASSAY_PROCEDURE: Cycloheximide Counterscreen for Small Molecule Inhibitors of Shiga Toxin; further: read at 38.3 µM for the half of the compounds with a filed dose; 0% is about no effect
# ASSAY_CONTEXT: cell reporter, cycloheximide protein synthesis inhibition counterscreen; hits give high values
The whole screen tested about 300,000 compounds, of which about 37,000 (12%) were called active. The sample holds actives, similar compounds and a random draw of the others, so the mix is not that of the screen.
Below: a set of entries, each annotated with reported max response.

>>> test_value("CC(C)C[C@@H](N)c1nnc(SCC(=O)c2ccc(Cl)cc2)o1")
"-2.64% (inactive)"
>>> test_value("O=[N+]([O-])c1ccccc1Nc1ccc(O)cc1")
"-1.56% (inactive)"
>>> test_value("Cn1c(=O)c(Sc2ccc(Cl)cc2)c(O)c2ccccc21")
"-5.19% (inactive)"
>>> test_value("COc1ccc(N2CCN(C(=O)/C(C#N)=C/c3ccccc3)CC2)cc1")
"14.2% (active)"
>>> test_value("CCn1c(CSCc2c(Cl)cccc2Cl)n[nH]c1=S")
"7.21% (inactive)"

Query: Input COc1ccc2c(c1)C=CC1(O2)N(CCO)c2ccccc2C1(C)C (stereo not drawn) , output reported max response.
Result: 26% (active)

Query: Identify measured max response associated with CS(=O)(=O)c1sc(C(=O)NC(=S)Nc2ccc(OC(F)(F)F)cc2)c2c1C=CCC2
Result: 1.1% (inactive)

Query: Specify max response for Cc1ccc2nc(SCC(=O)NC3CCCC3)[nH]c2c1 and stop.
Result: -3.78% (inactive)

Query: Tell me max response reported for CCOc1ccc(OCc2cccc(C(=O)N(CC)CC)c2)cc1
Result: 47.9% (active)

Query: Give the reported max response for this molecule. Cc1ccc(C)c(N2CCN(C(=O)CCc3nc4ccccc4[nH]3)CC2)c1
Result: -4.18% (inactive)

Query: Please give the documented max response of COc1ccc(OCc2cccc(C(=O)N3CCCC3)c2)cc1
Result: 59.3% (active)

Query: Query max response for Cn1nccc1/C=N\NC(=O)c1ccc(Cl)cc1
Result: 14.7% (active)

Query: Supply max response value. Item: Cn1c(=O)c(C(=O)Nc2ncccn2)c(O)c2ccccc21
Result: 17.3% (active)
